biological target: human MC4R receptor (human, UniProt P32245 1-332); assay: cell-based or functional assay
Sequence (P32245 whole entry): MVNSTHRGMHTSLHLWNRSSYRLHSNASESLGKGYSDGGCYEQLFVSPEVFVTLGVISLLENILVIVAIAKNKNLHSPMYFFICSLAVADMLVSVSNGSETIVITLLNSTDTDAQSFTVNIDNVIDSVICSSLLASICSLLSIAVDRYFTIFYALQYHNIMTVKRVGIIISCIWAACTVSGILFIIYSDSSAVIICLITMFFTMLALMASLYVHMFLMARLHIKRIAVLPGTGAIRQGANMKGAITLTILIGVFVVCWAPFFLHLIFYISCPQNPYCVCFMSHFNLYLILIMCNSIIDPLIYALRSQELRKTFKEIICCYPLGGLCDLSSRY
Positions of bridges follow the written chain, without caps; N, C: chain ends. Non-standard residues stand in square brackets, D forms with d. dPhe(4-F) = N[C@H](Cc1ccc(F)cc1)C(=O)O; dPhe(4-I) = N[C@H](Cc1ccc(I)cc1)C(=O)O; Nle = CCCC[C@H](N)C(=O)O
Give MC4R selectivity vs MC1R for every item shown.
Numbers only.

{"binder": "Ac-RC[dA]R[dY]R[dW]C-NH2 (disulfide 2-8; SMILES CC(=O)N[C@@H](CCCNC(=N)N)C(=O)N[C@H]1CSSC[C@@H](C(N)=O)NC(=O)[C@@H](Cc2c[nH]c3ccccc23)NC(=O)[C@H](CCCNC(=N)N)NC(=O)[C@@H](Cc2ccc(O)cc2)NC(=O)[C@H](CCCNC(=N)N)NC(=O)[C@@H](C)NC1=O) [CTX-1237]", "MC4R selectivity vs MC1R": 0.24}
{"binder": "Ac-RC[dA]R[dPhe(4-F)]R[dW]C-NH2 (disulfide 2-8) [CTX-1236]", "MC4R selectivity vs MC1R": 2.01}

Moving on to the next binder.
Inquiry: Given Ac-R[Nle]CH[dPhe(4-I)]R[dW]C-NH2 (disulfide 3-8; SMILES CCCC[C@H](NC(=O)[C@H](CCCNC(=N)N)NC(C)=O)C(=O)N[C@H]1CSSC[C@@H](C(N)=O)NC(=O)[C@@H](Cc2c[nH]c3ccccc23)NC(=O)[C@H](CCCNC(=N)N)NC(=O)[C@@H](Cc2ccc(I)cc2)NC(=O)[C@H](Cc2c[nH]cn2)NC1=O) [CTX-1233] , state its recorded MC4R selectivity vs MC1R.
Reply text: 0.26
